B1: DYRK1B (parent)
chain: KKVLNHGYDDDNHDYIVRSGERWL

Variants of: B1
measurement_notes: protein stability index of a GFP-peptide fusion (GPS, HEK-293T) (PSI 1-6); higher = more stable;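 further: lentivirally expressed fusions sorted by FACS into six bins by GFP to DsRed ratio, PSI derived from sequencing read proportions per bin multiplied by bin number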
details: c terminus: a fixed tail appended
measured_quantity: protein stability index
Provide a numeric answer; units are not to be included.

Please supply the value of reported protein stability index for the item S19Y 2.53

Please supply the value of reported protein stability index for the item G20C 2.95

Please supply the value of reported protein stability index for the item R18V 2.67

Please supply the value of reported protein stability index for the item L24G 3.81

Please supply the value of reported protein stability index for the item W23Y 3.64

Please supply the value of reported protein stability index for the item S19V 2.98

Please supply the value of reported protein stability index for the item R22G 3.19

Please supply the value of reported protein stability index for the item K1H 3.39

Please supply the value of reported protein stability index for the item V3M 3.04

Please supply the value of reported protein stability index for the item V17L 3.07

Please supply the value of reported protein stability index for the item W23R 3.6

Please supply the value of reported protein stability index for the item Y8R 4.28

Please supply the value of reported protein stability index for the item D9Q 2.94

Please supply the value of reported protein stability index for the item N5Y 2.33

Please supply the value of reported protein stability index for the item N12Q 3.48

Please supply the value of reported protein stability index for the item V3N 3.15

Please supply the value of reported protein stability index for the item D11S 3.03

Please supply the value of reported protein stability index for the item R22F 1.91

Please supply the value of reported protein stability index for the item H6L 2.51

Please supply the value of reported protein stability index for the item V3F 2.61

Please supply the value of reported protein stability index for the item I16N 3.24

Please supply the value of reported protein stability index for the item D11H 3.08

Please supply the value of reported protein stability index for the item G20I 2.73

Please supply the value of reported protein stability index for the item I16S 3.68

Please supply the value of reported protein stability index for the item L4N 3.76

Please supply the value of reported protein stability index for the item E21L 3.02

Please supply the value of reported protein stability index for the item V17P 3.86

Please supply the value of reported protein stability index for the item R22L 2.25

Please supply the value of reported protein stability index for the item I16M 3.32

Please supply the value of reported protein stability index for the item R22D 3.44

Please supply the value of reported protein stability index for the item N12E 3.36

Please supply the value of reported protein stability index for the item D14I 2.37

Please supply the value of reported protein stability index for the item D9C 2.96

Please supply the value of reported protein stability index for the item V17T 2.97

Please supply the value of reported protein stability index for the item G7L 2.24

Please supply the value of reported protein stability index for the item N5H 2.89
